System: Mus musculus
PROTOCOL_DESCRIPTION: Improvement in paternal nurturing behavior in CD38 knock out Slc:ICR mouse sire model of autism spectrum disorder assessed as parental scores to retrieve pups by sires at 100 ng/100 g, ip administered as single dose measured after 30 mins by parental retrieval test (reference value: 0 +/- 0 No units)
Format: functional
I'd be grateful if you could share measured Activity for these entries.

(Q) Form field - read-out: Activity; system: Mus musculus; submitted item: CCCCCCCCCCCCCCCNC(=O)Oc1ccc(C[C@@H]2NC(=O)[C@@H](NC(=O)CCCCCCCCCCCCCCC)CSSC[C@@H](C(=O)N3CCC[C@H]3C(=O)N[C@@H](CC(C)C)C(=O)NCC(N)=O)NC(=O)[C@H](CC(N)=O)NC(=O)[C@H](CCC(N)=O)NC(=O)[C@H]([C@@H](C)CC)NC2=O)cc1
(A) 2

(Q) Form field - read-out: Activity; system: Mus musculus; submitted item: CCCCCCCCCCCCCCCOC(=O)Oc1ccc(C[C@@H]2NC(=O)[C@@H](NC(=O)CCCCCCCCCCCCCCC)CSSC[C@@H](C(=O)N3CCC[C@H]3C(=O)N[C@@H](CC(C)C)C(=O)NCC(N)=O)NC(=O)[C@H](CC(N)=O)NC(=O)[C@H](CCC(N)=O)NC(=O)[C@H]([C@@H](C)CC)NC2=O)cc1
(A) 3.9

(Q) Form field - read-out: Activity; system: Mus musculus; submitted item: CCCCCCCCCCCCCCCC(=O)N[C@H]1CSSC[C@@H](C(=O)N2CCC[C@H]2C(=O)N[C@@H](CC(C)C)C(=O)NCC(N)=O)NC(=O)[C@H](CC(N)=O)NC(=O)[C@H](CCC(N)=O)NC(=O)[C@H]([C@@H](C)CC)NC(=O)[C@H](Cc2ccc(OC(=O)OCCCCCCCCCCCCCC)cc2)NC1=O
(A) 6.8

(Q) Form field - read-out: Activity; system: Mus musculus; submitted item: CCCCCCCCCCCCCCCCNC(=O)Oc1ccc(C[C@@H]2NC(=O)[C@@H](NC(=O)CCCCCCCCCCCCCCC)CSSC[C@@H](C(=O)N3CCC[C@H]3C(=O)N[C@@H](CC(C)C)C(=O)NCC(N)=O)NC(=O)[C@H](CC(N)=O)NC(=O)[C@H](CCC(N)=O)NC(=O)[C@H]([C@@H](C)CC)NC2=O)cc1
(A) 1.9

(Q) Form field - read-out: Activity; system: Mus musculus; submitted item: CCCCCCCCCCCCCCCC(=O)N[C@H]1CSSC[C@@H](C(=O)N2CCC[C@H]2C(=O)N[C@@H](CC(C)C)C(=O)NCC(N)=O)NC(=O)[C@H](CC(N)=O)NC(=O)[C@H](CCC(N)=O)NC(=O)[C@H]([C@@H](C)CC)NC(=O)[C@H](Cc2ccc(OC(=O)NCCCCCCCCCCCCCC)cc2)NC1=O
(A) 3.3

(Q) Form field - read-out: Activity; system: Mus musculus; submitted item: CCCCCCCCCCCCCCCCOC(=O)Oc1ccc(C[C@@H]2NC(=O)[C@@H](NC(=O)CCCCCCCCCCCCCCC)CSSC[C@@H](C(=O)N3CCC[C@H]3C(=O)N[C@@H](CC(C)C)C(=O)NCC(N)=O)NC(=O)[C@H](CC(N)=O)NC(=O)[C@H](CCC(N)=O)NC(=O)[C@H]([C@@H](C)CC)NC2=O)cc1
(A) 2

(Q) Form field - read-out: Activity; system: Mus musculus; submitted item: CC[C@H](C)[C@@H]1NC(=O)[C@H](Cc2ccc(O)cc2)NC(=O)[C@@H](N)CSSC[C@@H](C(=O)N2CCC[C@H]2C(=O)N[C@@H](CC(C)C)C(=O)NCC(N)=O)NC(=O)[C@H](CC(N)=O)NC(=O)[C@H](CCC(N)=O)NC1=O [OXYTOCIN]
(A) 5.3

---

ASSAY_SYSTEM: Vasopressin V1b receptor (Homo sapiens, UniProt P47901)
Sequence (P47901 whole entry): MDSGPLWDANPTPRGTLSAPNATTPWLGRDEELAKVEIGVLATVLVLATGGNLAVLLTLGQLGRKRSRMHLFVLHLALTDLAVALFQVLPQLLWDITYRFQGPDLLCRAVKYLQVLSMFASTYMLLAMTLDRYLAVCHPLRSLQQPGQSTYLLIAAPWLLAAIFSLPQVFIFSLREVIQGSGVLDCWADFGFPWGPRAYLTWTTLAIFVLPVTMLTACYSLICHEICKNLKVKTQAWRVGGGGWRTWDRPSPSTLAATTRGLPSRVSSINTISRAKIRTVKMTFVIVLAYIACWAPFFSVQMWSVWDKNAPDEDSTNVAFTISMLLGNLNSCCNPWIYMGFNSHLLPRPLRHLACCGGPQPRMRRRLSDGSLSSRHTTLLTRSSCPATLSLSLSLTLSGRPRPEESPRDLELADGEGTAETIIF
PROTOCOL_DESCRIPTION: Agonist activity at human V1B receptor expressed in HEK293 cells assessed as intracellular calcium level measured at 3 secs interval for 5 mins by fura-2/AM dye based micro spectrofluorometric method
I'd be grateful if you could share measured EC50 for these entries.

(Q) Name the reported EC50 value associated with the compound CCCCCCCCCCCCCCCCOC(=O)Oc1ccc(C[C@@H]2NC(=O)[C@@H](NC(=O)CCCCCCCCCCCCCCC)CSSC[C@@H](C(=O)N3CCC[C@H]3C(=O)N[C@@H](CC(C)C)C(=O)NCC(N)=O)NC(=O)[C@H](CC(N)=O)NC(=O)[C@H](CCC(N)=O)NC(=O)[C@H]([C@@H](C)CC)NC2=O)cc1
(A) > 100 µM

(Q) Name the reported EC50 value associated with the compound CCCCCCCCCCCCCCCC(=O)N[C@H]1CSSC[C@@H](C(=O)N2CCC[C@H]2C(=O)N[C@@H](CC(C)C)C(=O)NCC(N)=O)NC(=O)[C@H](CC(N)=O)NC(=O)[C@H](CCC(N)=O)NC(=O)[C@H]([C@@H](C)CC)NC(=O)[C@H](Cc2ccc(OC(=O)NCCCCCCCCCCCCCC)cc2)NC1=O
(A) > 100 µM

---

ASSAY_SYSTEM: UniProtKB P30559
PROTOCOL_DESCRIPTION: Agonist activity at human OTR receptor expressed in HEK293 cells measured at 3 secs interval for 5 mins by fura-2/AM dye based micro spectrofluorometric method relative to OT
Assay type: cell-based
PROPERTY_LABEL: Emax (%)
The reply should contain only the number, in %.

(Q) Name the reported Emax value associated with the compound CCCCCCCCCCCCCCCC(=O)N[C@H]1CSSC[C@@H](C(=O)N2CCC[C@H]2C(=O)N[C@@H](CC(C)C)C(=O)NCC(N)=O)NC(=O)[C@H](CC(N)=O)NC(=O)[C@H](CCC(N)=O)NC(=O)[C@H]([C@@H](C)CC)NC(=O)[C@H](Cc2ccc(OC(=O)OCCCCCCCCCCCCCC)cc2)NC1=O
(A) 15.3

(Q) Name the reported Emax value associated with the compound CCCCCCCCCCCCCCCC(=O)N[C@H]1CSSC[C@@H](C(=O)N2CCC[C@H]2C(=O)N[C@@H](CC(C)C)C(=O)NCC(N)=O)NC(=O)[C@H](CC(N)=O)NC(=O)[C@H](CCC(N)=O)NC(=O)[C@H]([C@@H](C)CC)NC(=O)[C@H](Cc2ccc(OC(=O)NCCCCCCCCCCCCCC)cc2)NC1=O
(A) 0

(Q) Name the reported Emax value associated with the compound CCCCCCCCCCCCCCCOC(=O)Oc1ccc(C[C@@H]2NC(=O)[C@@H](NC(=O)CCCCCCCCCCCCCCC)CSSC[C@@H](C(=O)N3CCC[C@H]3C(=O)N[C@@H](CC(C)C)C(=O)NCC(N)=O)NC(=O)[C@H](CC(N)=O)NC(=O)[C@H](CCC(N)=O)NC(=O)[C@H]([C@@H](C)CC)NC2=O)cc1
(A) 0

(Q) Name the reported Emax value associated with the compound CCCCCCCCCCCCCCCCOC(=O)Oc1ccc(C[C@@H]2NC(=O)[C@@H](NC(=O)CCCCCCCCCCCCCCC)CSSC[C@@H](C(=O)N3CCC[C@H]3C(=O)N[C@@H](CC(C)C)C(=O)NCC(N)=O)NC(=O)[C@H](CC(N)=O)NC(=O)[C@H](CCC(N)=O)NC(=O)[C@H]([C@@H](C)CC)NC2=O)cc1
(A) 0

(Q) Name the reported Emax value associated with the compound CCCCCCCCCCCCCCCCNC(=O)Oc1ccc(C[C@@H]2NC(=O)[C@@H](NC(=O)CCCCCCCCCCCCCCC)CSSC[C@@H](C(=O)N3CCC[C@H]3C(=O)N[C@@H](CC(C)C)C(=O)NCC(N)=O)NC(=O)[C@H](CC(N)=O)NC(=O)[C@H](CCC(N)=O)NC(=O)[C@H]([C@@H](C)CC)NC2=O)cc1
(A) 0

---

I'd be grateful if you could share measured EC50 for these entries.
ASSAY_SYSTEM: Oxytocin receptor (Homo sapiens)
Sequence (P30559 whole entry): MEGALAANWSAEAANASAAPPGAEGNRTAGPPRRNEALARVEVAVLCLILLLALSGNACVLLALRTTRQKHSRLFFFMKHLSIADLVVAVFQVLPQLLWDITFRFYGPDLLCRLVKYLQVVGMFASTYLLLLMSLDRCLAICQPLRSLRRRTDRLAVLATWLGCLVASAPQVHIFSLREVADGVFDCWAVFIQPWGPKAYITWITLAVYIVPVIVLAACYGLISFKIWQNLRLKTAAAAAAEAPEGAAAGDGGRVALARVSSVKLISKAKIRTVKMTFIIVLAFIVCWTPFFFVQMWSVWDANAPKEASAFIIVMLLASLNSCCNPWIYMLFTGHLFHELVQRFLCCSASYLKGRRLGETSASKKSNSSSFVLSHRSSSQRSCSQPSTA
PROTOCOL_DESCRIPTION: Agonist activity at human OTR receptor expressed in HEK293 cells assessed as intracellular calcium level measured at 3 secs interval for 5 mins by fura-2/AM dye based micro spectrofluorometric method

(Q) Form field - read-out: EC50; system: Oxytocin receptor (Homo sapiens); submitted item: CCCCCCCCCCCCCCCNC(=O)Oc1ccc(C[C@@H]2NC(=O)[C@@H](NC(=O)CCCCCCCCCCCCCCC)CSSC[C@@H](C(=O)N3CCC[C@H]3C(=O)N[C@@H](CC(C)C)C(=O)NCC(N)=O)NC(=O)[C@H](CC(N)=O)NC(=O)[C@H](CCC(N)=O)NC(=O)[C@H]([C@@H](C)CC)NC2=O)cc1
(A) > 10 µM

(Q) Form field - read-out: EC50; system: Oxytocin receptor (Homo sapiens); submitted item: CCCCCCCCCCCCCCCCNC(=O)Oc1ccc(C[C@@H]2NC(=O)[C@@H](NC(=O)CCCCCCCCCCCCCCC)CSSC[C@@H](C(=O)N3CCC[C@H]3C(=O)N[C@@H](CC(C)C)C(=O)NCC(N)=O)NC(=O)[C@H](CC(N)=O)NC(=O)[C@H](CCC(N)=O)NC(=O)[C@H]([C@@H](C)CC)NC2=O)cc1
(A) > 100 µM

(Q) Form field - read-out: EC50; system: Oxytocin receptor (Homo sapiens); submitted item: CCCCCCCCCCCCCCCCOC(=O)Oc1ccc(C[C@@H]2NC(=O)[C@@H](NC(=O)CCCCCCCCCCCCCCC)CSSC[C@@H](C(=O)N3CCC[C@H]3C(=O)N[C@@H](CC(C)C)C(=O)NCC(N)=O)NC(=O)[C@H](CC(N)=O)NC(=O)[C@H](CCC(N)=O)NC(=O)[C@H]([C@@H](C)CC)NC2=O)cc1
(A) > 100 µM

(Q) Form field - read-out: EC50; system: Oxytocin receptor (Homo sapiens); submitted item: CCCCCCCCCCCCCCCOC(=O)Oc1ccc(C[C@@H]2NC(=O)[C@@H](NC(=O)CCCCCCCCCCCCCCC)CSSC[C@@H](C(=O)N3CCC[C@H]3C(=O)N[C@@H](CC(C)C)C(=O)NCC(N)=O)NC(=O)[C@H](CC(N)=O)NC(=O)[C@H](CCC(N)=O)NC(=O)[C@H]([C@@H](C)CC)NC2=O)cc1
(A) > 100 µM

(Q) Form field - read-out: EC50; system: Oxytocin receptor (Homo sapiens); submitted item: CCCCCCCCCCCCCCCC(=O)N[C@H]1CSSC[C@@H](C(=O)N2CCC[C@H]2C(=O)N[C@@H](CC(C)C)C(=O)NCC(N)=O)NC(=O)[C@H](CC(N)=O)NC(=O)[C@H](CCC(N)=O)NC(=O)[C@H]([C@@H](C)CC)NC(=O)[C@H](Cc2ccc(OC(=O)NCCCCCCCCCCCCCC)cc2)NC1=O
(A) > 100 µM
